# Experimental Details: COS7 lysate on small-molecule microarray, probe aHis, 635 nm (AID 1123);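 further: z-score combines 667nm fluorescence intensity with signal-to-noise per printed compound spot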
# Settings: COS7 cell lysate, fluorescence, higher = more signal
Quantity Measured: composite z-score
Respond using a number only.

[ask] Please look up its composite z-score: CC(C)(C)N1C(=O)[C@H]2[C@H]3[C@H](O)[C@H](O)CC(=NO[C@@H]4O[C@H](CO)[C@@H](O)[C@H](O)[C@H]4O)[C@H]3CC[C@H]2C1=O
[reply] 0.276

[ask] What about this compound? COC(=O)CC=C[C@@H](C)[C@@H](C=NO[C@H](C)c1cn([C@H](CO)Cc2ccccc2)nn1)OC
[reply] 0.188

[ask] Follow-up entry: COc1cccc([C@H]2Oc3ccc(OC)cc3C(=NO[C@@H]3O[C@H](COC(C)=O)[C@@H](OC(C)=O)[C@H](OC(C)=O)[C@H]3OC(C)=O)[C@@H]2O)c1
[reply] 0.1

###

Record form. Attribute: composite z-score. Fill in for each entry.
# Test system: glycogen synthase kinase-3 (GSK3A per assay name; protocol says GSK3B)
# Experimental Details: GSK3 binders on small-molecule microarrays, primary screen, biochemical, small-molecule microarray, 635 nm fluorescence, GSK3A (AID 1103); further: the record names both GSK3A and GSK3B
# Settings: small-molecule microarray binding, fluorescence 635 nm; higher = more signal
No unit in the answer, only the number.

[ask] Would you kindly share the measured composite z-score for CO[C@H]1COC(=O)CC=C[C@@H](C)[C@H](OC)COC(=O)[C@@H]2CCCN2C(=O)CC=C[C@@H]1C ?
[reply] 0.78

[ask] Consider next the compound COC(=O)[C@H](C)NC(=O)CCC1CC(OC(=O)NCCc2ccc(F)cc2)CC2(CCCC(COC(=O)NCCC(C)C)O2)O1 (stereo partly drawn) in the same way.
[reply] -0.102

[ask] Same question, CCC=CCCC(OC(=O)c1ccc(Br)cc1)C1=CCCCC1=O (stereo not drawn) this time
[reply] 0.166

[ask] Also CO[C@H]1COC(=O)CC=C[C@H](C)[C@@H](OC)COC(=O)[C@H](C)COC(=O)CC=C[C@@H]1C , if possible.
[reply] 0.429

[ask] Item: CC(=O)OC[C@H]1OC(ON=CC[C@@H]2C=C[C@H](OC(C)=O)[C@@H](COC(C)=O)O2)[C@H](OC(C)=O)[C@@H](OC(C)=O)[C@@H]1OC(C)=O (stereo partly drawn)
[reply] 0.0032

[ask] Next compound up: CO[C@@H]1C=CCC(=O)N[C@@H](C)C(=O)OC[C@@H](OC)[C@H](C)CCCC(=O)OC[C@H]1C
[reply] 0.0516

[ask] How about COc1ccc(COC(=O)NN=C2C[C@@H](O)[C@@H](O)[C@@H]3[C@@H]4C(=O)N(Cc5ccccc5)C(=O)[C@@H]4CC[C@H]23)cc1 ?
[reply] -0.623

[ask] Queued: CC(C)=CCCC(C)=CCON=C1C[C@@H](O)[C@@H](O)[C@@H]2[C@@H]3C(=O)N(C(C)(C)C)C(=O)[C@@H]3CC[C@H]12
[reply] 0.563

###

# Experimental Details: binders of probe aFST on microarray, primary screen, stem cell growth factor project, biochemical, small-molecule microarray, fluorescence 635/667 (AID 1086);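 further: score merges 667 nm fluorescence with signal-to-noise of each printed compound spot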
# Settings: higher = more signal
Exercise: for every item that follows, state its recorded composite z-score.
Reply: number alone, nothing else.

[ask] Query: composite z-score; subject: CCOC(=O)NN=C1C[C@@H](O)[C@@H](O)[C@@H]2[C@@H]3C(=O)N([C@@H](C)c4ccccc4)C(=O)[C@@H]3CC[C@@H]12
[reply] 0.517

[ask] Now try COC(=O)[C@H](C)NC(=O)CCC1CC(OC(=O)NCc2ccc3c(c2)OCO3)CC2(CCCC(COC(=O)NCCc3ccccc3OC)O2)O1 (some centres undefined) .
[reply] -0.17

[ask] Also C=CC[C@@H]1C=C[C@H](ON=C(C)CCC(=O)OC[C@H]2O[C@H](C#Cc3ccccc3)C=C[C@@H]2Oc2ccc(C)cc2)[C@@H](CO)O1 ?
[reply] 0.203

[ask] Follow-up entry: CC(CCN1CCCc2nc(C)c(C)cc21)=NO[C@@H](C)c1cc(-c2c(C)cc(C)cc2C)no1
[reply] 0.0731
